Kindly supply the reported red/green cell ratio (normalised) values for the records listed here.
assay: differential killing of epithelial or mesenchymal cells, primary screen, imaging, PC-3E GFP, TEM4-18 mCherry, co-culture (AID 1345086); details: imaging cell counts, at 1 µM, actives lie on both sides, counts scaled to control wells, 1 = unselective;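 also: normalised mesenchymal count divided by normalised epithelial count so high means epithelial killing; cells exposed to compound for 72 h before imaging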
Activity calls are given as the source filed them.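 The calls were made as follows: active = compounds killing one labelled cell type while sparing the other, by normalised counts and ratio limits, not self-fluorescent; inactive = the rest.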

Task item: Using the record for CO/N=C(/C(=O)NC1C(=O)N2C(C(=O)OC(C)OC(C)=O)=C(COC(N)=O)CSC12)c1ccco1 (stereo unspecified) , report its red/green cell ratio (normalised).
Reply: 1.1 (inactive)

Task item: Now try CN[C@@H]1[C@@H](O[C@H]2O[C@H](CO)[C@@H](N)[C@H](O)[C@H]2O)O[C@H]2C[C@@H](N)[C@H](O[C@H]3[C@H](O)[C@@H](O)[C@H](N)C[C@@H]3N)O[C@@H]2[C@@H]1O .
Reply: 1.38 (inactive)

Task item: Now try C[C@]12CCC3c4ccc(O)cc4CCC3C1CCC2=O (stereo partly specified) .
Reply: 0.96 (inactive)

Task item: Now try CC(C)c1c(C(=O)c2ccccc2)c(-c2ccccc2)c(-c2ccc(F)cc2)n1CC[C@@H](O)C[C@@H](O)CC(=O)O .
Reply: 0.86 (inactive)

Task item: Now try CC(CC(=O)N1CCOC1=O)N1C(=S)OC[C@@H]1c1ccccc1 (stereo partly specified) .
Reply: 1.05 (inactive)

Task item: Now try COc1ccc(-c2cc(=O)c3c(O)cc(OC)c(OC)c3o2)c(OC)c1 .
Reply: 1.02 (inactive)

Task item: Now try C=C[C@H]1CN2CC[C@H]1C[C@@H]2[C@H](O)c1ccnc2ccc(OC)cc12 .
Reply: 1.16 (inactive)

Task item: Now try O=c1c(O)c(-c2ccccc2)oc2cc(O)cc(O)c12 .
Reply: 0.9 (inactive)

Task item: Now try COc1cc(O)c2c(c1)[C@@H](O)[C@@]13CO[C@@H](O)[C@@]1(O3)C2=O .
Reply: 1.09 (inactive)

Task item: Now try COC(=O)CC1C(C)(C)C(OC(C)=O)[C@@H]2[C@@H](OC(C)=O)[C@]34O[C@@]2(O)C1(C)C3CC[C@]1(C)C4=CC(=O)O[C@H]1c1ccoc1 (stereo partly specified) .
Reply: 1.07 (inactive)

Task item: Now try CCC1OC(=O)[C@H](C)C(=O)[C@H](C)[C@@H](OC2O[C@H](C)C[C@H](N(C)C)[C@H]2O)[C@](C)(OC)C[C@@H](C)C(=O)[C@H](C)[C@H]2N(CCCCn3cnc(-c4cccnc4)c3)C(=O)O[C@@]12C (stereo partly specified) .
Reply: 1.16 (inactive)

Task item: Now try CC1(C)CC[C@]2(C(=O)O)CC[C@]3(C)C(=CCC4[C@@]5(C)CC[C@H](O)[C@@](C)(CO)C5CC[C@]43C)C2C1 (stereo partly specified) .
Reply: 0.94 (inactive)

Task item: Now try CCOC(=O)O[C@]1(C(=O)COC(=O)CC)CCC2C3CCC4=CC(=O)C=C[C@]4(C)C3[C@@H](O)C[C@@]21C (stereo partly specified) .
Reply: 0.87 (inactive)

Task item: Now try COC(=O)/C=C/C(C)=C/C=C/C(C)=C/C=C/C=C(C)/C=C/C=C(C)/C=C/C(=O)O .
Reply: 0.81 (inactive)

Task item: Now try OC[C@@H](O)[C@@H](O)[C@H](O)[C@@H](O)CO .
Reply: 1.05 (inactive)

Task item: Now try CCCCC[C@H](CC(=O)NO)C(=O)N[C@H](C(=O)N1CCC[C@H]1CO)C(C)C .
Reply: 0.91 (inactive)
